Entries and their EC50 values follow.
Target: soluble guanylate cyclase (sGC) (Homo sapiens, UniProt Q02108+Q02153)
Construct: endogenously expressing soluble guanylate cyclase (sGC); endogenous in cells; host or cells: HEK293
Sequence (Q02153 1-619): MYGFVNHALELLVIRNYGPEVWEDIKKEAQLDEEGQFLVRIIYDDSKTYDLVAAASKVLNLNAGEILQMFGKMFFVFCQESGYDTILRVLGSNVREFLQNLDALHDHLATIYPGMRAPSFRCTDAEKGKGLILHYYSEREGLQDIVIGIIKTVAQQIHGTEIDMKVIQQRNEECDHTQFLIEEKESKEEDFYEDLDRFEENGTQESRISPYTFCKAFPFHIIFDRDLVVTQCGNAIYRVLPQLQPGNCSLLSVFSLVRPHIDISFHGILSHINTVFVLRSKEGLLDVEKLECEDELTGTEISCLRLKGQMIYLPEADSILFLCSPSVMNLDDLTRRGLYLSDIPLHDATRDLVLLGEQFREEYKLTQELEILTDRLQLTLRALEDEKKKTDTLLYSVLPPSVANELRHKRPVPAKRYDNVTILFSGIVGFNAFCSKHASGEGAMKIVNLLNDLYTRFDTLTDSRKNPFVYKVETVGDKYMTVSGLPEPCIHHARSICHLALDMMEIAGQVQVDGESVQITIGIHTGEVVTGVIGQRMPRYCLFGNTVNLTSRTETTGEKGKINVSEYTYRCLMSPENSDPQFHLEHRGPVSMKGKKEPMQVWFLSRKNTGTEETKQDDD
Sequence (Q02108 1-690): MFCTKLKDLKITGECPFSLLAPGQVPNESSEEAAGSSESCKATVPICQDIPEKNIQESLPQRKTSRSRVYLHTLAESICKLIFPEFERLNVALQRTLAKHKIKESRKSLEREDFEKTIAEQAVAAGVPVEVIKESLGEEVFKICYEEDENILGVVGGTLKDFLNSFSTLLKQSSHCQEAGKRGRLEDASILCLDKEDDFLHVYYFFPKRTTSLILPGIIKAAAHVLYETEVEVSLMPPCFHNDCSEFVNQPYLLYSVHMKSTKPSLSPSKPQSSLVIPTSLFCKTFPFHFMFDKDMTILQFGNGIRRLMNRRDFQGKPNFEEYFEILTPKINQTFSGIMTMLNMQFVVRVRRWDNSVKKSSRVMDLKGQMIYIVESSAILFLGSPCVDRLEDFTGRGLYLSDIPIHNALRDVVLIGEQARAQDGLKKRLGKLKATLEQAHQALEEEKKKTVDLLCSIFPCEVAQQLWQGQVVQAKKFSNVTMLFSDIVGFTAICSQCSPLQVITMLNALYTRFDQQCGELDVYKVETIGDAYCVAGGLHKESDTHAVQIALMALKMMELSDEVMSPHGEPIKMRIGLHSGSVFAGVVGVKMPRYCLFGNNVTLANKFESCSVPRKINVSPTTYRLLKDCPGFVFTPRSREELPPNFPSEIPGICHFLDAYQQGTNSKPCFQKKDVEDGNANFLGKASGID
Assay: sGC-HEK-cGMP assay (run with SNP incubation)
Assay type: cell-based
Settings: in the presence of 10 μM SNP; Table 3D; read-out: HEK assay EC50

N#CC1(C(=O)Nc2cnc(-c3cc(-c4ncco4)n(Cc4ccccc4F)n3)nc2N)CC1 [Compound 47] | < 20 µM

CC(C)(CC(F)(F)F)C(=O)Nc1cnc(-c2cc(-c3ccon3)n(Cc3ccccc3F)n2)nc1N [Compound 53] yielded EC50 of < 20 µM

Item: CC1(C(=O)Oc2cnc(-c3cc(-c4ccon4)n(Cc4ccccc4F)n3)nc2N)CC1 [Compound 5] | EC50: < 20 µM

For this compound ( N#CC1(C(=O)Nc2cnc(-c3cc(-c4ccon4)n(Cc4cccc(F)c4F)n3)nc2N)CC1 [Compound 36] ), measured EC50 is < 20 µM

# EC50 (compound: COc1ccc(C2(C(=O)Nc3cnc(-c4cc(-c5ccon5)n(Cc5ccccc5F)n4)nc3N)CC2)cc1 [Compound 12] ) is < 20 µM

Reference source: patent US20150342954A1
